Data credit: PubChem BioAssay (NCI)

The following compounds are shown together with reported TGI values.
Tested on: LOX IMVI melanoma
Assay: NCI tumour cell line growth inhibition, 48 h

Answered examples (2):
COc1ccc(C2=NC(=O)NC2c2ccc(OC)cc2)cc1 (stereo not drawn); > 100 µM
NC(=O)CSc1c2cc(O)ccc2nc2ccc(O)cc12; > 10 µM

Now for another entry.
The recorded TGI with LOX IMVI melanoma for COc1cccc(-c2cc(=O)c3cc4c(cc3[nH]2)OCO4)c1 was > 100 µM

---

Tested on: NCI/ADR-RES ovarian
Assay: NCI tumour cell line growth inhibition, 48 h; in the data active = GI50 below about 0.43 µM; inactive = the rest
A correct response names exactly one class from active, inactive

Answered cases to consult:
CCCCCCCCCc1ccc(OCCOCCOCCOCCOCCOCCOCCOCCOCCO)cc1; active
CCOC(=O)c1ccc(NC(=O)NC2=NCCS2)cc1; inactive

Now look at this one.
Exam item: Test call, this molecule: Cc1cc(CCl)c(C)cc1CCl
Marked response: inactive

---

Tested on: SK-MEL-2 melanoma
Experiment: NCI tumour cell line growth inhibition, 48 h
property: TGI

Here are 10 compounds together with their reported answers.
O=[N+]([O-])c1ccc(C2ON=C(c3ccccc3)N2C23CC4CC(CC(C4)C2)C3)cc1 (stereo not drawn); > 10 µM
COc1ccc(-c2c(C#N)c(N)nc(N3CCOCC3)c2C#N)cc1; > 100 µM
COc1cc(OC)c2sc(-c3ccc(-n4cncc4-c4ccc(OC)c(OC)c4)cc3)nc2c1; > 100 µM
FC(F)(F)c1ccc(-c2nn3ncccc3c2-c2ccnc(Nc3ccc4c(c3)OCCO4)n2)cc1; > 25 µM
COc1cc2c(c3c1c(=O)c1ccccc1n3C)C=CC(C)(C)O2; > 100 µM
Nc1c(C(=O)c2cccc(C#CCN3CCCCC3)c2)cnn1-c1ccc(F)cc1; > 25 µM
O=c1c2c(-c3ccccc3)c3ccccc3nc2cnn1-c1ccccc1; > 100 µM
CCOc1ccc(N=C(NC(=O)c2ccccc2)SC)cc1; > 100 µM
COC/N=C(\NC#N)NCOC; > 100 µM
CCn1cc(/C=C2\Oc3cc(OCC#N)ccc3C2=O)c2cc(OC)ccc21; > 68.5 µM

Input O=C1CCC2(c3ccccc3)Nc3ccccc3N12 (stereo not drawn) . Output TGI: > 100 µM

get_value(item= COc1ccc(-c2c(-c3ccc(OC)cc3)n3c(=O)n(C)c(=O)n23)cc1 , readout=TGI) returns > 100 µM

Per the record, CC(C)(C)C(=O)Oc1ccc(/C=C/C(=O)c2ccc(OC(=O)C(C)(C)C)cc2)cc1 has TGI of > 100 µM

---

Test system: HCT-116 colon
Experiment: NCI tumour cell line growth inhibition, 48 h
Measured TGI, listed per entry for reference.

O=C(c1ccccc1)N1C(=O)N(c2ccccc2)C(=Nc2ccccc2)C1=Nc1ccccc1; > 100 µM
COc1c2c(nc3ccccc13)-c1cc(C(CC(=O)OC(C)(C)C)C(=O)OC(C)C)c(CO)c(=O)n1C2 (stereo not drawn); > 100 µM

# compound CC1CN=C(Nc2cccc(F)c2)S1 (stereo not drawn) ; its TGI = > 100 µM

---

System: MCF7 breast
Test: NCI tumour cell line growth inhibition, 48 h
Reported TGI by item:

CC1(C)OCC(C2OC3OC(C)(C)OC3C2c2ccccc2)O1 (stereo not drawn); > 100 µM
CC1CN=C(Nc2cccc(F)c2)S1 (stereo not drawn); > 100 µM

Proceed to the following item.
Fill in: MCF7 breast TGI for CC1(C)CO[P@@](=S)(c2ccccn2)O[C@@H]1c1ccccc1 = > 100 µM

---

# reported TGI; entries follow
System: KM12 colon
Test: NCI tumour cell line growth inhibition, 48 h

Worked examples follow.
CCn1cc(/C=C2\Oc3cc(OCC#N)ccc3C2=O)c2cc(OC)ccc21; > 100 µM
Cn1c(=Nc2ccc(Cl)cc2)sc2ccccc21; > 100 µM
CCC1=CCN(c2cc(C)ccn2)OC1c1ccccc1 (stereo unspecified); > 100 µM
O=c1[nH]nc(-c2ccccc2)n1/N=C/c1cccc([N+](=O)[O-])c1; > 100 µM
CCOC(=O)c1sc2c(c1OC(=O)c1cc(OC)c(OC)c(OC)c1)c(=O)n(-c1ccccc1)c(=S)n2-c1ccccc1; > 100 µM

Kindly note the recorded TGI for COc1ccc(-c2c(-c3ccc(OC)cc3)n3c(=O)n(C)c(=O)n23)cc1 , which is > 100 µM

Query Cc1cc(NCc2cc(Nc3ccnc4cc(Cl)ccc34)ccc2F)nc(N2CCOCC2)n1 yields TGI of 4.59 µM

Reported TGI ( N=c1ccc2nc3ccc(N)cc3sc-2c1 ) = > 100 µM

Lab book: TGI of O=C(Nc1cccc(F)c1)c1cc2ccc(O)cc2oc1=Nc1cccc(F)c1 noted as > 100 µM

For record Cc1cc(N/N=C/c2nc(-c3ccc(Cl)cc3)oc2C)c2cc(Br)ccc2n1 the listed TGI is 5.43 µM

response.value for O=c1nc2ccc([N+](=O)[O-])cc2[n+]([O-])[nH]1 (field: TGI) = > 100 µM

---

Test system: UACC-257 melanoma
Assay: NCI tumour cell line growth inhibition, 48 h
TGI values, listed per item
Respond numerically; units are µM and should not be typed.

Below: 7 compounds and their reported TGI.
O=C1CCCC/C1=C\c1ccc([N+](=O)[O-])cc1; 38.5
C/C(=N\NC(=S)N1CCC(N2CCCCC2)CC1)c1ccccn1; 8.93
Cn1c(=O)n(C)c2cc(CNCCNc3ccnc4cc(Cl)ccc34)ccc21; 33.3
CCCc1nc(Cl)nc(Cl)c1Cl; 2
Oc1ccc(/C=C/c2cccc(/C=C/c3ccc(O)c(O)c3)n2)cc1O; 28.5
CCCCc1n(Cc2ccc3ccccc3c2)c2ccccc2[n+]1Cc1ccc2ccccc2c1; 2.23
C[C@@H](C[C@H]1OC(C)(C)O[C@@H]1C(C)(C)O)[C@H]1CC=C2[C@]3(C)[C@H](O)C[C@H]4C(C)(C)[C@H](O)CC[C@]4(C)[C@H]3CC[C@]21C; 20.4

Lab book: TGI of O=C(N=Nc1ccc(Cl)cc1Cl)NNc1ccc(Cl)cc1Cl noted as 43.1

---

Tested on: UACC-257 melanoma
Test: NCI tumour cell line growth inhibition, 48 h
Listed here: items and their measured TGI.

Lab note: CCn1cc(/C=C2\Oc3cc(OCC#N)ccc3C2=O)c2cc(OC)ccc21 gave TGI of > 100 µM

---

System: UACC-257 melanoma
Test: NCI tumour cell line growth inhibition, 48 h
property: TGI

Use these answered entries as a reference point.
Nc1c(C(=O)c2cccc(C#CCN3CCCCC3)c2)cnn1-c1ccc(F)cc1; > 25 µM
COc1cc(C2c3cc4c(cc3OC(NNS(=O)(=O)c3ccc(C)cc3)C2C)OCO4)cc(OC)c1OC (centres undefined); > 53.2 µM
O=C(NN1C(=O)C(Cl)C1c1cccc([N+](=O)[O-])c1)c1ccccc1O (centres undefined); > 100 µM
NC(=O)CSc1c2cc(O)ccc2nc2ccc(O)cc12; > 10 µM
CCc1ccc2[nH]c(O)c(C3=Nc4ccccc4C3=O)c2c1; > 100 µM

So, Nc1ccc(-c2nc3ccc(F)cc3s2)cc1Cl ? Its TGI was > 100 µM

What the record says about COC(=O)C(=O)C(CC(=O)Nc1ccc(C)cc1)C(=O)OC (centres undefined) : TGI is > 100 µM

Entry COC(=O)c1cc(=O)nc2cc3cccccc3n12 — recorded TGI = > 100 µM

Looking up Oc1[nH]c2ccccc2c1C1=Nc2ccccc2/C1=N\OCCOC1OCC(O)C(O)C1O (centres undefined) , I see its TGI listed as > 100 µM
